# System: Lolium perenne (LOLPE)
# experiment notes: Post-emergence efficacy, glasshouse, evaluated after 13 days
# Assay type: in vivo
# measurement parameters: Lolium perenne, 312 h; post-emergence application, 500 g/Ha, evaluated after 13 days; read-out: Control of weed species LOLPE (100=total damage to plant; 0=no damage to plant)
property name: pest or weed control at 500 g/ha (%)
Quick reminder: number only, in %, skip the unit.

// query Value lookup for pest or weed control at 500 g/ha; key = O=C(O)CC[n+]1ccc(C(=O)NC2CS(=O)(=O)C2)cn1 [Compound A67]
// result 90

// query Value lookup for pest or weed control at 500 g/ha; key = C#CCNC(=O)c1cc[n+](CCS(=O)(=O)[O-])nc1 [Compound A16]
// result 60

// query Value lookup for pest or weed control at 500 g/ha; key = CCNC(=O)c1cc[n+](CC[C@H](N)C(=O)O)nc1 [Compound A91]
// result 60

// query Value lookup for pest or weed control at 500 g/ha; key = CC#CCNC(=O)c1cc[n+](CCC(=O)O)nc1 [Compound A86]
// result 60

// query Value lookup for pest or weed control at 500 g/ha; key = CC[S+]([O-])CCNC(=O)c1cc[n+](CCC(=O)O)nc1 (stereo not drawn) [Compound A117]
// result 50

// query Value lookup for pest or weed control at 500 g/ha; key = O=C(c1cc[n+](CCS(=O)(=O)[O-])nc1)N1CCCCC1 [Compound A27]
// result 30

// query Value lookup for pest or weed control at 500 g/ha; key = O=C(Nc1ccccc1O)c1cc[n+](CCS(=O)(=O)[O-])nc1 [Compound A84]
// result 0

// query Value lookup for pest or weed control at 500 g/ha; key = O=C(O)CC[n+]1ccc(C(=O)N2CCSCC2)cn1 [Compound A112]
// result 30

// query Value lookup for pest or weed control at 500 g/ha; key = COCCNC(=O)c1cc[n+](CCC(=O)O)nc1 [Compound A40]
// result 70

###

# Tested on: Ipomoea hederacea (IPOHE)
# experiment notes: Post-emergence efficacy, glasshouse, evaluated after 13 days
# Assay type: in vivo
# measurement parameters: Ipomoea hederacea, 312 h; post-emergence application, 500 g/Ha, evaluated after 13 days; read-out: Control of weed species IPOHE (100=total damage to plant; 0=no damage to plant)
property name: pest or weed control at 500 g/ha (%)
Quick reminder: number only, in %, skip the unit.

// query Value lookup for pest or weed control at 500 g/ha; key = CC1(C)CC(CCNC(=O)c2cc[n+](CCC(=O)O)nc2)=NO1 [Compound A148, 2,2,2-trifluoroacetate]
// result 30

// query Value lookup for pest or weed control at 500 g/ha; key = "O=C(O)CC[n+]1ccc(C(=O)NC2CC2)cn1"
// result 30

// query Value lookup for pest or weed control at 500 g/ha; key = "CC(C)(CO)NC(=O)c1cc[n+](CCC(=O)O)nc1"
// result 20

// query Value lookup for pest or weed control at 500 g/ha; key = "CC(C)N(C)C(=O)c1cc[n+](CCS(=O)(=O)O)nc1"
// result 30

// query Value lookup for pest or weed control at 500 g/ha; key = "O=C(O)CC[n+]1ccc(C(=O)Nc2cnccn2)cn1"
// result 20

// query Value lookup for pest or weed control at 500 g/ha; key = "CC(=O)CNC(=O)c1cc[n+](CCC(=O)O)nc1"
// result 20

// query Value lookup for pest or weed control at 500 g/ha; key = CC1(C)CC1NC(=O)c1cc[n+](CCC(=O)O)nc1 (stereo not drawn)
// result 0

// query Value lookup for pest or weed control at 500 g/ha; key = "CCNC(=O)c1cc[n+](CCCC(=O)O)nc1"
// result 40

// query Value lookup for pest or weed control at 500 g/ha; key = "C#CCNC(=O)c1cc[n+](CCNS(=O)(=O)[O-])nc1"
// result 70

Just for reference, patent US20210403435A1 is where these values come from.
